Measured values drawn from a melting point compilation (Tetko et al.; mined from patent text by program, amines drawn as free bases though some values may be those of a salt) for this set.

experimentalEndpoint: melting point

Consider the reported melting point for these compounds:
> print(dat)
                                   compound  experimentalendpoint      measvalue
1  COC(=O)c1cc2cnc(N3CCC[C@H]3CO)nc2n(Cc2ccc(OC)c(Cl)c2)c1=O         melting point  175 to 176 °C
2      O=C1c2ccccc2N(Cc2ccc(F)cc2)C2=NCCN12         melting point  192 to 195 °C
3                    Cc1csc2ccc(C(O)=S)cc12         melting point  205 to 207 °C
4  O=C(O)c1ccc([C@H]2CC[C@H](C3CCC4(CC3)OCCO4)CC2)cc1F         melting point         228 °C
5  c1ccc2c(c1)CCN(Cc1n[nH]c3c1CCc1ccccc1-3)C2         melting point  180 to 182 °C
6  CCCCOc1c(CNC(=O)OC(C)(C)C)n(CC(C)C)c(=O)c2ccc(-n3ccnn3)cc12         melting point  190 to 191 °C

GET /values?readout=melting point&item= `CC#CCOc1ccc(S(=O)(=O)NC[C@@H](C(=O)NO)N2CCN(S(C)(=O)=O)CC2)cc1` 150 °C

====

Some molecules, each annotated with its measured melting point.

Consider the reported melting point for these molecules:
> print(dat)
                                   molecule  experimentalendpoint      measvalue
1  O=C1C=C[C@H]2N1CCN1C(=O)C[C@H]3CCCC[C@@]321 (relative stereo)         melting point  159 to 162 °C
2   CCCCOc1c(CO)n(CC2CC2)c(=O)c2ccc(Br)cc12         melting point  111 to 112 °C
3  O=C(c1ccc(N2CCCC2)cc1)C1CCN(Cc2ccccc2)CC1         melting point  154 to 156 °C
4       CC(C)(C)c1cc(CCC(=O)Oc2ccccc2)ccc1O         melting point  106 to 109 °C
5  CC(C)OC(=O)C(C)NC(=O)C(N)(CC(=O)O)NC(=O)C(C)C (stereo not given)         melting point  176 to 178 °C

GET /values?readout=melting point&item= `COc1ccc(CN2C(=O)CNS2(=O)=O)cc1` 111 to 113 °C

GET /values?readout=melting point&item= Cc1cccc(-c2ncc(NC(=O)OCc3ccccc3)c(=O)n2CC(=O)NC(Cc2ccccc2)C(=O)C(F)(F)F)c1 (stereo not given) 128 to 132 °C

GET /values?readout=melting point&item= `O=C1CC2(CC=CC2)CC(=O)O1` 64 to 65 °C

GET /values?readout=melting point&item= `CCN(CC(=O)O)Cc1cc(/C(=N\O)c2cccc(Br)c2)ccc1[N+](=O)[O-]` 131 °C

GET /values?readout=melting point&item= `CCN(CC)C(=O)c1ccc(-c2cc3c(Nc4cccc(Cl)c4)ncnc3[nH]2)cc1` > 250 °C

GET /values?readout=melting point&item= `NS(=O)(=O)c1cc(CCNC(=O)/C=C/c2cccs2)ccc1-c1ccco1` 165 to 166 °C

GET /values?readout=melting point&item= `CC(C)n1c(=O)n(C(=O)NCC2CCN(CC3(C(=O)O)CCOCC3)CC2)c2ccccc21` 176 °C

GET /values?readout=melting point&item= `CN1CCN(c2cccc3c2C[C@H](NC(=O)c2ccc(C(=O)C(F)(F)F)cc2)CC3)CC1` 91 to 93 °C

GET /values?readout=melting point&item= `CCOC(=O)c1cn(-c2cnnn2C)c2nc(Cl)c(F)cc2c1=O` 251 °C

GET /values?readout=melting point&item= CC1CCC2(C(=O)O)CCC3(C)C(=CCC4C5(C)CC(O)C(O)C(C)(CO)C5CCC43C)C2C1C (stereo not given) 300 to 310 °C

GET /values?readout=melting point&item= `CC(=O)Nc1ccc(-c2ccccc2C#N)cc1C` 135 to 143 °C

GET /values?readout=melting point&item= `COc1cc(NC(=O)CNC(=O)c2ccccc2)ccc1-c1cnco1` 243 to 245 °C

GET /values?readout=melting point&item= `COc1nc2ccccc2nc1NC(=O)N1CCN(c2c(C)c(C)cc(C)c2C)CC1` 237 to 239 °C

GET /values?readout=melting point&item= CCOC(=O)CSC1=CCC2C3CCC4=CC(=O)C=CC4(C)C3(F)C(O)CC12C (stereo not given) 144 to 145 °C

GET /values?readout=melting point&item= `CCCC(C)(CCC)C(=O)O[C@H]1C[C@H](O)C=C2C=C[C@H](C)[C@H](CC[C@@H]3C[C@@H](O)CC(=O)O3)[C@H]21` 109 to 111 °C

GET /values?readout=melting point&item= COC(=O)c1c(F)cc(OCCNC(=O)C2Cc3ccccc3N2S(=O)(=O)c2ccc(-c3ccc(F)cc3F)cc2)cc1F (stereo not given) 69 to 77 °C

GET /values?readout=melting point&item= CN1CC2c3ccccc3Cc3ncccc3N2C1 (stereo not given) 127 to 129 °C

GET /values?readout=melting point&item= `c1ccc(COc2ccc(CCCCn3cncn3)cc2)cc1` 68 to 69 °C

GET /values?readout=melting point&item= `Cc1ccc(Cl)c(C(=O)c2ccc(Cl)cc2)c1Cl` 132 to 136 °C

GET /values?readout=melting point&item= `O=C(CCCC1CCCCCCCCCCC1)C1=C(O)CSC1=O` 62 to 69 °C

GET /values?readout=melting point&item= CC1(Br)Cc2cc(C(=O)O)ccc2C1=O (stereo not given) 203 to 205 °C

GET /values?readout=melting point&item= `CCOc1ccc([N+](=O)[O-])c(NC)n1` 101 °C

GET /values?readout=melting point&item= `COc1ccc(N(N)c2cc(Cl)nc(Cl)n2)cc1` 113 to 115 °C

GET /values?readout=melting point&item= `CCCCCC(=O)c1cccc(OCc2ccc3ccccc3c2)c1` 52 to 55 °C

GET /values?readout=melting point&item= `COc1cc(OC)cc(-c2oc3ncnc(N4CCCCC4)c3c2-c2ccccc2)c1` 152 to 153 °C
